System: HCT-116 colon
Test: NCI-60 one-dose screen, 48 h (100 = growth as untreated, 0 = no growth, -100 = all killed)
Conditions: 10 µM unless noted
About 83,000 compounds went through this panel and 20% of them were active in at least one assay; those are over-represented in the sample as a whole.
So basically: growth at 50% or higher? That is 1. Lower than 50%? That is 0.

Illustrative cases are given below, each with its answer.
query smiles | group label
O=S(=O)(NCCNc1nccc(-c2c(-c3cccc(F)c3)nc3occn23)n1)c1ccc(Br)cc1 | 1
CC1=NN(c2nc(SCC(=O)Nc3nc4ccc(C)cc4s3)nc(-c3ccccc3)c2C#N)C(=O)C1 | 1
O=C(Nc1ccc(NC(=O)c2cc(=O)[nH]c3ccccc23)cc1)Nc1cccc(C(F)(F)F)c1 | 0
O=C(CN1C(=O)CCC1=O)Nc1ncc(Cc2ccc(F)cc2)s1 | 1
CCN(CC)CCCN1C(=O)c2c(c(C)c3c(oc4cc(O)ccc43)c2C)C1=O | 0
Cc1cc2c(O)c(-c3cccc(Cl)c3)c3sc(=O)oc3c2cc1C | 0
CCOC(=O)CSc1ncnc2c1c(-c1ccccc1)c(-c1ccccc1)n2-c1ccc(C)cc1 | 1
CC(=O)N(N=Nc1ccccc1)c1cccc2ccccc12 | 1

Consider the record given below.
Check this molecule for growth at or above 50%: O=C1c2cccc(NCCN=Cc3cc(O)ccc3O)c2C(=O)c2c(NCCN=Cc3cc(O)ccc3O)cccc21
0
